Assay target: MIF (Homo sapiens)
Sequence (P14174 2-115 limits assumed): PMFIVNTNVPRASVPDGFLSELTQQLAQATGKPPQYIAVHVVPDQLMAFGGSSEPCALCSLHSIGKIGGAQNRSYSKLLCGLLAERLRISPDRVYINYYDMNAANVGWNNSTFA
Method: MIF tautomerase assay using pHPP as substrate
Format: biochemical
Condition label: inhibition of the MIF enzyme in vitro; mean of multiple test results; read-out: Tautomerase Inhibition pIC50 (converted)
# IC50 annotations

Known results for compounds:
OC[C@H]1CCCN1c1nc(N2CCN(c3ccc(O)cc3)CC2)nc2c1ncn2-c1cccnc1 [Example 93] ... 100 to 977 nM
NC(=O)c1ccc(N2CCN(c3nc(N)c4ncn(-c5ccncc5)c4n3)CC2)nc1 [Example 194] ... > 10000 nM
O=C(O)Cn1cnc2c(-n3nnc4ccccc43)nc(N3CCN(c4ccc(O)cc4)CC3)nc21 [Example 24] ... 10 to 97.7 nM

[ask] Look up and state reported IC50 for O=C(O)Cn1cnc2c(N3N=CC4C=CC=CC43)nc(N3CCN(c4ccncc4)CC3)nc21 (centres unmarked) [Example 49]
[reply] > 10000 nM

[ask] Look up and state reported IC50 for CCS(=O)(=O)NC(=O)Cn1cnc2c(-n3ncc4ccccc43)nc(N3CCN(c4ccc(O)cc4)CC3)nc21 [Example 53]
[reply] 10 to 97.7 nM

[ask] Look up and state reported IC50 for Cc1ccccc1-n1cnc2c(N)nc(N3CCN(c4ccc(O)cc4)CC3)nc21 [Example 76]
[reply] > 10000 nM

[ask] Look up and state reported IC50 for O=C(O)Cn1cnc2c(-n3nnc4ccc(Cl)cc43)nc(N3CCN(c4ccc(O)cc4)CC3)nc21 [Example 18]
[reply] 10 to 97.7 nM

[ask] Look up and state reported IC50 for COC(=O)CNc1nc(N2CCN(c3ccc(O)cc3)CC2)nc2c1ncn2-c1ccncc1 [Example 162]
[reply] 100 to 977 nM

###

Assay target: MIF (Homo sapiens)
Method: MIF tautomerase assay using pHPP as substrate
Format: biochemical
Condition label: inhibition of the MIF enzyme in vitro; mean of multiple test results; read-out: Tautomerase Inhibition pIC50 (converted)
Quantity: IC50

[ask] Report its IC50 with MIF (Homo sapiens) as the test system: CCC(C(=O)O)n1cnc2c(-n3ncc4ccccc43)nc(N3CCN(c4ccc(O)cn4)CC3)nc21 (centres unmarked)
[reply] 10 to 97.7 nM

[ask] Report its IC50 with MIF (Homo sapiens) as the test system: "Nc1nc(N2CCN(c3ccc(O)cc3)CC2)nc2c1ncn2-c1cccc(-c2ccccc2)c1"
[reply] 1000 to 9770 nM

[ask] Report its IC50 with MIF (Homo sapiens) as the test system: "O=C(O)Cn1cnc2c(-n3ncc4ccccc43)nc(N3CCN(c4ccc(O)nc4)CC3)nc21"
[reply] > 10000 nM

[ask] Report its IC50 with MIF (Homo sapiens) as the test system: O=C(O)C1CCN(c2nc(N3CCN(c4cccnc4)CC3)nc3c2ncn3-c2ccncc2)C1 (centres unmarked)
[reply] > 10000 nM

[ask] Report its IC50 with MIF (Homo sapiens) as the test system: Oc1ccc(N2CCN(c3nc(-n4ncc5ccccc54)c4ncn(C5CCOC5)c4n3)CC2)nc1 (centres unmarked)
[reply] 100 to 977 nM

[ask] Report its IC50 with MIF (Homo sapiens) as the test system: "Nc1nc(N2CCN(c3ccc(CO)cn3)CC2)nc2c1ncn2-c1ccncc1"
[reply] > 10000 nM

[ask] Report its IC50 with MIF (Homo sapiens) as the test system: "Cc1nc(N2CCN(c3ccc(O)cc3)CC2)nc2c1ncn2-c1cc(Cl)cnn1"
[reply] > 10000 nM

[ask] Report its IC50 with MIF (Homo sapiens) as the test system: "OCCn1cnc2c(-n3ncc4ccccc43)nc(N3CCN(c4ccc(O)cc4)CC3)nc21"
[reply] 100 to 977 nM
